TESTED_TARGET: Carnitine O-palmitoyltransferase 1, liver isoform (Rattus norvegicus)
Sequence (P32198 whole entry): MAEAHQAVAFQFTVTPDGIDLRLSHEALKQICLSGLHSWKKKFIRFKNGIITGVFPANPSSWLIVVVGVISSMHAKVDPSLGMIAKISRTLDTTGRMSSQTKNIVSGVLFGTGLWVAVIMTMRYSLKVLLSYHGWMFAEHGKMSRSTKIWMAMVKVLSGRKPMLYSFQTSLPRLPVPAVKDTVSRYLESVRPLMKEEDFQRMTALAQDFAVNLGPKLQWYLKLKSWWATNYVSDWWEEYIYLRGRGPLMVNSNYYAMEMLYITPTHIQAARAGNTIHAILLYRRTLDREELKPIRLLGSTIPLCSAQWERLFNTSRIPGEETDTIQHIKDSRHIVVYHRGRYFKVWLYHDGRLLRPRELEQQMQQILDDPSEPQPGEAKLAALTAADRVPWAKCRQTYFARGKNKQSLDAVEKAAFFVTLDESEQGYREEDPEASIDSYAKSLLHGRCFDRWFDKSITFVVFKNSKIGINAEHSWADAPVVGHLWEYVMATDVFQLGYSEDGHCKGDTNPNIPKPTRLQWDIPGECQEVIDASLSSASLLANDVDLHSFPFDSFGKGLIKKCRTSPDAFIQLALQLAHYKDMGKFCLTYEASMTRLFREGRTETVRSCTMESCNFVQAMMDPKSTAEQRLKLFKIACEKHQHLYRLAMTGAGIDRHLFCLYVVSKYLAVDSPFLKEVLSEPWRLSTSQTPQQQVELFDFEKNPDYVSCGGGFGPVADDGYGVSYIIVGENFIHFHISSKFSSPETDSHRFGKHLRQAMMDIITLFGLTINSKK
PROTOCOL_DESCRIPTION: SUPPLEMENTARY: Inhibition of Carnitine palmitoyltransferase 1, liver isoform
EXPERIMENTAL_READOUT: IC50 (nM)

INSERT INTO assay_data (compound, tested_target, result_number) VALUES
  ('COc1ccc(Cl)cc1CN1C(=O)CS(=O)(=O)c2ccc(C(=O)Nc3nc(CC(=O)O)cs3)cc21', 'Carnitine O-palmitoyltransferase 1, liver isoform (Rattus norvegicus)', 89.8),
  ('COc1ccc(Cl)cc1Cc1cn(C)c2ccc(C(=O)Nc3nc(CC(=O)O)cs3)cc12', 'Carnitine O-palmitoyltransferase 1, liver isoform (Rattus norvegicus)', 54.8),
  ('COc1ccc(Cl)cc1S(=O)(=O)N1CCSc2ccc(C(=O)Nc3nc(CC(=O)O)cs3)cc21', 'Carnitine O-palmitoyltransferase 1, liver isoform (Rattus norvegicus)', 20.4);

(a) O=C(O)Cc1ccc(NC(=O)c2ccc3c(c2)N(S(=O)(=O)c2cccc(Cl)c2)CC3)cc1
(b) Cc1nn(C)c(-c2noc([C@H]3CCCCN3C(=O)COc3ccccc3)n2)c1Cl
Short answer wanted: higher IC50, a or b ? Identify your selection by its label.
b
(b: 252 nM, a: 79.8 nM)
